Form field: pKi (one value per entry).
- experimental-system: Cannabinoid receptor 2 (Homo sapiens)
- Sequence (P34972 whole entry): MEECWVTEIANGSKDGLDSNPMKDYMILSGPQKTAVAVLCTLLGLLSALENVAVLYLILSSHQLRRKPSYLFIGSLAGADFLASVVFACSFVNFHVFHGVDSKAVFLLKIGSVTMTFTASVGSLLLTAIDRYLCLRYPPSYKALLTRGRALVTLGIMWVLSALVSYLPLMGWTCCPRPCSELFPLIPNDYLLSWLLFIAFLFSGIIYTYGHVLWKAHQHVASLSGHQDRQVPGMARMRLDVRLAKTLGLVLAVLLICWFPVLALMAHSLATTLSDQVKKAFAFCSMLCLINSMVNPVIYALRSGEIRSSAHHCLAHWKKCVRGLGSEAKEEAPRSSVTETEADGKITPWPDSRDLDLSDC
- procedure-summary: Binding affinity towards Cannabinoid receptor 2 using CP-55940 as radioligand in HEK293 EBNA cells
- Type: cell-based
Please express pKi as -log10 of the molar concentration.

Below: 3 molecules and their reported pKi.
[[record]]
chemical_string = "CC1=CC[C@@H]2[C@@H](C1)c1c(O)cc(Cc3ccccc3)cc1OC2(C)C"
experimental_system = "Cannabinoid receptor 2 (Homo sapiens)"
reported_metric = "pKi"
measured_number = 7.07

[[record]]
chemical_string = "CC1=CC[C@@H]2[C@@H](C1)c1c(O)cc(C(C)(C)c3ccccc3)cc1OC2(C)C"
experimental_system = "Cannabinoid receptor 2 (Homo sapiens)"
reported_metric = "pKi"
measured_number = 9.04

[[record]]
chemical_string = "CC1=CC[C@@H]2[C@@H](C1)c1c(O)cc(C(C)(C)C3CCCCC3)cc1OC2(C)C"
experimental_system = "Cannabinoid receptor 2 (Homo sapiens)"
reported_metric = "pKi"
measured_number = 9.19


Now take the following molecule into account.
Problem: Name the recorded pKi for CC1=CC[C@@H]2[C@@H](C1)c1c(O)cc(C3(c4ccccc4)SCCS3)cc1OC2(C)C .
Solution: 7.75
